# PROCEDURE SUMMARY: Biodistribution in PC-3 tumor-bearing NSG mice (Example 2)
# Format: in vivo
# CONDITION LABEL: male, NSG (NOD.Cg-Prkdc^scid Il2rg^tm1Wjl/SzJ), mouse, heart, iv, total radioactivity, 60 MIN BLOCKED, co-injection of 100 μg of [D-Phe^6,Leu-NHEt^13,des-Met^14]Bombesin(6-14); read-out: Biodistribution HEART, Mean
MEASUREMENT NAME: tissue uptake at 1 h (%ID/g)
Quick note: give the figure in %ID/g, leave out the unit.

Request the reported tissue uptake at 1 h associated with CC(C)C[C@@H](CN1CCC[C@H]1C(N)=O)NC(=O)[C@H](Cc1c[nH]cn1)NC(=O)CNC(=O)[C@@H](NC(=O)[C@H](C)NC(=O)[C@H](Cc1c[nH]c2ccccc12)NC(=O)[C@H](CCC(N)=O)NC(=O)[C@@H](Cc1ccccc1)NC(=O)CN1CCC(NC(=O)CN2CCN(CC(=O)O)CCN(CC(=O)O)CCN(CC(=O)O)CC2)CC1)C(C)C [^68Ga-ProBOMB2, metal not drawn] 0.16
